Source of measurements: PubChem BioAssay

# test_method_notes: viability loss in pontine glioma line – cell-based, JHH-DIPG-1, MIPE4.0, CellTiter-Glo, qHTS, dose response (AID 1347062);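 on AC50: cells exposed to compound for two days before readout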
# settings: JHH-DIPG-1 viability, CellTiter-Glo ATP luminescence
Results filed as inconclusive are left out. Calls of active or inactive are those of the source. Cut-off not given; nearly all actives show AC50 up to about 27 µM.
Outcome codes: active, inactive

CCC[C@H]1C[C@H](C(=O)N[C@@H]([C@@H]2O[C@@H](SC)[C@@H](O)[C@@H](O)[C@H]2O)[C@H](C)Cl)N(C)C1 | inactive
O=C1NC(=O)/C(=C/c2cccc(C(F)(F)F)c2)S1 | inactive
Nc1nc(=O)n([C@H]2CSC(CO)O2)cc1F (some centres undefined) | inactive
O=C(Nc1c(Cl)cncc1Cl)c1ccc(OC(F)F)c(OCC2CC2)c1 | inactive
CS(=O)(=O)Oc1ccc2c(NC(N)=O)c(C(=O)c3ccc(Cl)cc3Cl)oc2c1 | active
O=C(O)c1ccc(-c2cc3cccnc3c(-c3ccc4nonc4c3)n2)cc1 | active
CC(C)OC(=O)[C@H](C)N[P@](=O)(OC[C@H]1O[C@@H](n2ccc(=O)[nH]c2=O)[C@](C)(F)[C@@H]1O)Oc1ccccc1 | inactive
O=C(NOC[C@H](O)CO)c1ccc(F)c(F)c1Nc1ccc(I)cc1F | active
C[C@@H]1CCO[C@H]2Cn3cc(C(=O)NCc4ccc(F)cc4F)c(=O)c(O)c3C(=O)N12 | inactive
